Attribution: patent US12617813B2

Molecular target: HDAC2 (Homo sapiens, UniProt Q92769)
Sequence (Q92769 whole entry): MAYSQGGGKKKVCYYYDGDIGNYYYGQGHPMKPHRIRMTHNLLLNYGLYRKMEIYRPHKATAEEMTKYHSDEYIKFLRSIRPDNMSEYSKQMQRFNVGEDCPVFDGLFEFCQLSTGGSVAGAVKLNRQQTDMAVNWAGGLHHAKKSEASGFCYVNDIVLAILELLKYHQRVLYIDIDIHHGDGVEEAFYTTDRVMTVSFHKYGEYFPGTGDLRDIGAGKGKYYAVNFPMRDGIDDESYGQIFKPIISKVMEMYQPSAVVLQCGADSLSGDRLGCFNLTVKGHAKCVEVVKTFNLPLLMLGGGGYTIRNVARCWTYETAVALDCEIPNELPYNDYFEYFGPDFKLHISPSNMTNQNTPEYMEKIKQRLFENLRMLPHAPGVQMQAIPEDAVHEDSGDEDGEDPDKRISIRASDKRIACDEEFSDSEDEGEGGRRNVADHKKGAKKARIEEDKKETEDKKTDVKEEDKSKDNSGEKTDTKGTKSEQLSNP
Experiment: HDAC inhibition, HDAC2
Format: biochemical
MEASURED_ENDPOINT: log10 IC50 (log10 of the value in nM)

compound="O=C(/C=C/c1ccc(O[C@H]2O[C@H](CO)[C@@H](O)[C@H](O)[C@H]2O)cc1)NO [STR-V-121]" tgt="HDAC2 (Homo sapiens, UniProt Q92769)" value=3.81
compound="O=C(CCCCCCn1cc(-c2ccc(O)cc2)nn1)NO [STR-V-183, reference compound]" tgt="HDAC2 (Homo sapiens, UniProt Q92769)" value=1.43
compound="O=C(CCCCCCn1cc(-c2ccc3cc(O[C@H]4O[C@H](CO)[C@@H](O)[C@H](O)[C@@H]4O)ccc3c2)nn1)NO [STR-II-36]" tgt="HDAC2 (Homo sapiens, UniProt Q92769)" value=1.02
compound="CC(=O)OC[C@H]1OC(Oc2ccc(-c3cn(CCCCCCC(=O)NO)nn3)cc2)C(OC(C)=O)[C@@H](OC(C)=O)[C@@H]1OC(C)=O (stereo in doubt) [STR-V-176]" tgt="HDAC2 (Homo sapiens, UniProt Q92769)" value=0.62
compound="O=C(CCCCCn1cc(-c2ccc(O[C@H]3O[C@H](CO)[C@@H](O)[C@H](O)[C@@H]3O)cc2)nn1)NO [STR-II-29]" tgt="HDAC2 (Homo sapiens, UniProt Q92769)" value=2.16
compound="O=C(CCCCCCn1cc(-c2ccc(O[C@H]3O[C@H](CO)[C@@H](O)[C@H](O)[C@H]3O)cc2)nn1)NO [STR-V-53]" tgt="HDAC2 (Homo sapiens, UniProt Q92769)" value=1.78
compound="O=C(CCCCCCn1cc(-c2ccc3cc(O[C@H]4O[C@H](CO)[C@@H](O)[C@H](O)[C@H]4O)ccc3c2)nn1)NO [STR-V-114]" tgt="HDAC2 (Homo sapiens, UniProt Q92769)" value=1.79
compound="CC(=O)OC[C@H]1OC(Oc2ccc3cc(-c4cn(CCCCCCC(=O)NO)nn4)ccc3c2)C(OC(C)=O)[C@@H](OC(C)=O)[C@@H]1OC(C)=O (stereo in doubt) [STR-V-177]" tgt="HDAC2 (Homo sapiens, UniProt Q92769)" value=1.12
compound="O=C(CCCCCCn1cc(-c2ccc(OC3O[C@H](CO)[C@@H](O)[C@H](O)C3O)cc2)nn1)NO (stereo in doubt) [STR-I-195]" tgt="HDAC2 (Homo sapiens, UniProt Q92769)" value=1.46
compound="O=C(/C=C/c1ccc2cc(O[C@H]3O[C@H](CO)[C@@H](O)[C@H](O)[C@H]3O)ccc2c1)NO [STR-V-115]" tgt="HDAC2 (Homo sapiens, UniProt Q92769)" value=3.01
compound="O=C(CCCCCn1cc(-c2ccc3cc(O[C@H]4O[C@H](CO)[C@@H](O)[C@H](O)[C@@H]4O)ccc3c2)nn1)NO [STR-II-35]" tgt="HDAC2 (Homo sapiens, UniProt Q92769)" value=1.67

* * *

Test system: Hep-G2
Assay: Cell growth inhibition, Hep-G2
Assay type: cell-based
Conditions: Homo sapiens, HepG2, NI = No Inhibition at 100 uM
The entries below come with measured IC50 values attached.
MEASURED_ENDPOINT: IC50 (µM)

compound="O=C(CCCCCn1cc(-c2ccc3cc(O[C@H]4O[C@H](CO)[C@@H](O)[C@H](O)[C@@H]4O)ccc3c2)nn1)NO [Compound 9]" units_label=µM value=13.5
compound="C[C@H]1C[C@@H](N(C)C)[C@H](O)C(Oc2ccc(-c3cn(CCCCCCC(=O)NO)nn3)cc2)O1 (stereo partly drawn) [Compound 13]" units_label=µM value=9.6
